// provenance: ChEMBL document CHEMBL3352149

inhibition values, listed per item
# System: Escherichia coli
# assay.overview: Inhibition of wild-type Escherichia coli MurD compound preincubated for 10 mins before substrate addition at 25 uM measured after 15 mins by LC-MS method

Completed entries (count: 3):
# molecule, inhibition
records = [
    ("C=CCNC", "< 15%"),
    ("COc1ccc(NC(=O)n2ccnc2)cc1", "< 15%"),
    ("N#CCC(=O)Nc1ccc(F)cc1", "< 15%"),
]

Incoming: Could you share which inhibition value was measured for C[S+](C)CC(=O)NCc1ccccc1 ?
Outgoing: < 15%

Incoming: Value lookup for inhibition; key = Cc1ccc(NC(=O)C2CC(Br)=NO2)cc1 (stereo not drawn)
Outgoing: < 15%

---

# Tested on: Escherichia coli
# assay.overview: Inhibition of wild-type Escherichia coli MurE compound preincubated for 10 mins before substrate addition at 25 uM measured after 15 mins by LC-MS method
// label = Y if inhibition is not less than 20%, otherwise N

# compound, assigned.category
measured = [
    ("CC(=O)Nc1ccc([N+](=O)[O-])cc1", "N"),
    ("C=CC(=O)NC1CCCC1", "N"),
    ("C[S+](C)CC(=O)Nc1ccc(F)cc1", "N"),
    ("COc1ccc(NC(=O)CC#N)cc1", "N"),
    ("CCCCNC(=O)CCl", "N"),
    ("N#CCC(=O)NCCc1ccccc1", "N"),
]

Incoming: Quick check, inhibition >= 20%? C[S+](C)CC(=O)NC1CCCC1
Outgoing: N

Incoming: # bool: inhibition of O=C(Nc1ccccc1)n1ccnc1 [IMIDAZOLE-1-CARBOXYLIC ACID PHENYLAMIDE] >= 20%
Outgoing: N

Incoming: Quick check, inhibition >= 20%? O=C(NCCc1ccccc1)C1CC(Br)=NO1 (stereo not given)
Outgoing: Y

Incoming: Quick check, inhibition >= 20%? C[S+](C)CC(=O)NCCc1ccccc1
Outgoing: N

Incoming: Is inhibition for CCCCNC(=O)CC#N at or above 20%?
Outgoing: N

Incoming: Quick check: does O=C(Nc1ccc([N+](=O)[O-])cc1)C1CC(Br)=NO1 (stereo not given) have inhibition greater than or equal to 20%?
Outgoing: Y

Incoming: Does the reported inhibition for COc1ccc(NC(=O)C2CC(Br)=NO2)cc1 (stereo not given) fall at or above the 20% mark?
Outgoing: N

Incoming: inhibition >= 20% for C=CCNc1ccc(OC)cc1 ?
Outgoing: N

---

# Test system: Escherichia coli
# assay.overview: Inhibition of Escherichia coli MetAP at 25 uM after 20 mins by HPLC analysis
In this section we review reported inhibition values for a set of compounds.

# compound, reported.value
rows = [
    ("C=CC(=O)NCCc1ccccc1", "< 15%"),
    ("CCCCC(NC(=O)CC#N)C(=O)OC (stereo unspecified)", "< 15%"),
    ("C=CCNCCCC", "< 15%"),
    ("C[S+](C)CC(=O)Nc1ccc(F)cc1", "< 15%"),
    ("CNC(=O)CC#N", "< 15%"),
]

Incoming: What measured inhibition is associated with C=CCNC(CCCC)C(=O)OC (stereo unspecified) on Escherichia coli?
Outgoing: < 15%

Incoming: I'm curious: which inhibition was measured for C=CC(=O)Nc1ccc(C)cc1 tested on Escherichia coli?
Outgoing: < 15%

Incoming: Kindly state the measured inhibition obtained for N#CCNC(=O)c1ccccc1 with Escherichia coli.
Outgoing: < 15%

Incoming: Escherichia coli / inhibition / N#CCC(=O)NC1CCCC1 : value?
Outgoing: < 15%

Incoming: Could you share what inhibition was measured for C=CCNc1ccc(F)cc1 , tested on Escherichia coli?
Outgoing: < 15%

---

Readings of inhibition for the listed compounds
# Tested on: Escherichia coli
# assay.overview: Inhibition of wild-type Escherichia coli MurB compound preincubated for 10 mins before substrate addition at 25 uM measured after 15 mins by LC-MS method

# compound, reported.value
rows = [
    ("O=C(Nc1ccc(F)cc1)C1CC(Br)=NO1 (stereo not drawn)", "< 15%"),
    ("CCCCNC(=O)C[S+](C)C", "< 15%"),
]

Incoming: Test system Escherichia coli; read-out inhibition; what value for C[S+](C)CC(=O)NC1CCCC1 ?
Outgoing: < 15%

Incoming: Provide value of inhibition for this record tested with Escherichia coli: O=C(NC1CCCC1)C1CC(Br)=NO1 (stereo not drawn)
Outgoing: < 15%

Incoming: Form field - read-out: inhibition; system: Escherichia coli; submitted item: O=C(NCc1ccccc1)C1CC(Br)=NO1 (stereo not drawn)
Outgoing: 18%

Incoming: Test system Escherichia coli; read-out inhibition; what value for N#CCC(=O)NC1CCCC1 ?
Outgoing: < 15%

Incoming: Give Escherichia coli inhibition for N#CCNC(=O)/C=C/c1ccccc1
Outgoing: < 15%

Incoming: Any idea what inhibition came out for CCCCNC(=O)CC#N on Escherichia coli?
Outgoing: < 15%

---

# System: Escherichia coli
# assay.overview: Inhibition of wild-type Escherichia coli MurC compound preincubated for 10 mins before substrate addition at 25 uM measured after 15 mins by LC-MS method
recorded.endpoint: inhibition

Incoming: Using the record for COc1ccc(NC(=O)CCl)cc1 , report its inhibition.
Outgoing: < 15%

Incoming: Return reported inhibition; argument: O=C(Nc1ccc(F)cc1)n1ccnc1
Outgoing: < 15%

Incoming: Return reported inhibition; argument: CCCCNC(=O)C1CC(Br)=NO1 (stereo not given)
Outgoing: < 15%

Incoming: Which value of inhibition has been reported for C=CCNc1ccc(OC)cc1 in the records?
Outgoing: < 15%

Incoming: GET /values?readout=inhibition&item= CCCCNC(=O)CCl
Outgoing: < 15%

Incoming: If you can, please state the reported inhibition value of C=CC(=O)NCc1ccccc1 .
Outgoing: < 15%

Incoming: # get_value(readout='inhibition', item= O=C(Nc1ccccc1)C1CC(Br)=NO1 (stereo not given) )
Outgoing: < 15%

Incoming: Look up inhibition: O=C(NCc1ccccc1)C1CC(Br)=NO1 (stereo not given)
Outgoing: < 15%

Incoming: # lookup: inhibition of N#CCC(=O)NC1CCCC1
Outgoing: < 15%

Incoming: Look at this molecule and give its reported inhibition. C=CC(=O)NCCCC
Outgoing: < 15%

---

Known inhibition of a selection of compounds
# Tested on: Escherichia coli
# assay.overview: Inhibition of wild-type Escherichia coli MurE compound preincubated for 10 mins before substrate addition at 25 uM measured after 15 mins by LC-MS method

Record excerpt, results attached:
# compound, recorded.endpoint, reported.value
measured = [
    ("O=C(CCl)Nc1ccc(F)cc1", "inhibition", "< 15%"),
    ("C=CC(=O)NCCCC", "inhibition", "< 15%"),
    ("C=CCNCCc1ccccc1", "inhibition", "< 15%"),
]

Incoming: Fill in: inhibition of C=CC(=O)NCc1ccccc1 is ___
Outgoing: < 15%

Incoming: Name the reported inhibition value associated with the compound C=CCNC1CCCC1
Outgoing: < 15%

Incoming: Which measured inhibition value corresponds to O=C(Nc1ccc(F)cc1)C1CC(Br)=NO1 (centres undefined) ?
Outgoing: 23%

Incoming: Endpoint output: inhibition of CNC(=O)C[S+](C)C . Value?
Outgoing: 20%

Incoming: Which inhibition reading was recorded for the compound N#CCC(=O)NC1CCCC1 ?
Outgoing: 16%

Incoming: Can you share its inhibition? I mean this compound: Cc1ccc(NC(=O)CC#N)cc1
Outgoing: < 15%

---

# tested.system: Genome polyprotein (West Nile virus)
# assay.overview: Inhibition of West Nile virus NS2B-NS3 protease at 50 uM
recorded.endpoint: inhibition

# molecule, tested.system, inhibition
data = [
    ("CNC(=O)C[S+](C)C", "Genome polyprotein (West Nile virus)", "< 15%"),
    ("O=C(Nc1ccc(F)cc1)C1CC(Br)=NO1 (stereo not drawn)", "Genome polyprotein (West Nile virus)", "< 15%"),
    ("C=CCNc1ccc(C)cc1", "Genome polyprotein (West Nile virus)", "< 15%"),
    ("C[S+](C)CC(=O)NC1CCCC1", "Genome polyprotein (West Nile virus)", "< 15%"),
    ("CC(=O)Nc1ccc([N+](=O)[O-])cc1", "Genome polyprotein (West Nile virus)", "< 15%"),
    ("C=CCNCCc1ccccc1", "Genome polyprotein (West Nile virus)", "< 15%"),
]

Now consider a different molecule.
Incoming: Fill in the recorded inhibition for this molecule, with Genome polyprotein (West Nile virus) as test system: COc1ccc(NC(=O)C2CC(Br)=NO2)cc1 (stereo not drawn)
Outgoing: 21%

---

# System: Escherichia coli
# assay.overview: Inhibition of wild-type Escherichia coli MurE compound preincubated for 10 mins before substrate addition at 25 uM measured after 15 mins by LC-MS method
Below, each entry is listed with its recorded inhibition.

Here's what some known entries look like.
# compound, recorded.endpoint, reported.value
data = [
    ("N#CCNC(=O)c1ccccc1", "inhibition", "< 15%"),
    ("C[S+](C)CC(=O)Nc1ccccc1", "inhibition", "32%"),
    ("COc1ccc(NC(=O)n2ccnc2)cc1", "inhibition", "< 15%"),
    ("N#CCC(=O)Nc1ccc([N+](=O)[O-])cc1", "inhibition", "< 15%"),
]

Incoming: Which inhibition value belongs to COc1ccc(NC(=O)CCl)cc1 ?
Outgoing: < 15%

Incoming: Look at this compound and give its reported inhibition. C=CC(=O)NC(CCCC)C(=O)OC (stereo unspecified)
Outgoing: < 15%

Incoming: Any idea what inhibition was measured for C=CC(=O)NCCc1ccccc1 ?
Outgoing: < 15%

Incoming: Look up inhibition: C[S+](C)CC(=O)NCc1ccccc1
Outgoing: < 15%

Incoming: What value of measured inhibition is listed for CCCCNC(=O)C[S+](C)C ?
Outgoing: 29%

Incoming: Which inhibition value is on record for CCCCNC(=O)C1CC(Br)=NO1 (stereo unspecified) ?
Outgoing: 27%

Incoming: Item under review: O=C(NC1CCCC1)C1CC(Br)=NO1 (stereo unspecified) . Reported inhibition?
Outgoing: 16%
